Hey, just so you know, these numbers are from patent US8916565B2.

IC50: recorded values
Study System: human NaV subtype, like NaV 1.7 (Homo sapiens, UniProt Q15858)
Sequence (Q15858 whole entry): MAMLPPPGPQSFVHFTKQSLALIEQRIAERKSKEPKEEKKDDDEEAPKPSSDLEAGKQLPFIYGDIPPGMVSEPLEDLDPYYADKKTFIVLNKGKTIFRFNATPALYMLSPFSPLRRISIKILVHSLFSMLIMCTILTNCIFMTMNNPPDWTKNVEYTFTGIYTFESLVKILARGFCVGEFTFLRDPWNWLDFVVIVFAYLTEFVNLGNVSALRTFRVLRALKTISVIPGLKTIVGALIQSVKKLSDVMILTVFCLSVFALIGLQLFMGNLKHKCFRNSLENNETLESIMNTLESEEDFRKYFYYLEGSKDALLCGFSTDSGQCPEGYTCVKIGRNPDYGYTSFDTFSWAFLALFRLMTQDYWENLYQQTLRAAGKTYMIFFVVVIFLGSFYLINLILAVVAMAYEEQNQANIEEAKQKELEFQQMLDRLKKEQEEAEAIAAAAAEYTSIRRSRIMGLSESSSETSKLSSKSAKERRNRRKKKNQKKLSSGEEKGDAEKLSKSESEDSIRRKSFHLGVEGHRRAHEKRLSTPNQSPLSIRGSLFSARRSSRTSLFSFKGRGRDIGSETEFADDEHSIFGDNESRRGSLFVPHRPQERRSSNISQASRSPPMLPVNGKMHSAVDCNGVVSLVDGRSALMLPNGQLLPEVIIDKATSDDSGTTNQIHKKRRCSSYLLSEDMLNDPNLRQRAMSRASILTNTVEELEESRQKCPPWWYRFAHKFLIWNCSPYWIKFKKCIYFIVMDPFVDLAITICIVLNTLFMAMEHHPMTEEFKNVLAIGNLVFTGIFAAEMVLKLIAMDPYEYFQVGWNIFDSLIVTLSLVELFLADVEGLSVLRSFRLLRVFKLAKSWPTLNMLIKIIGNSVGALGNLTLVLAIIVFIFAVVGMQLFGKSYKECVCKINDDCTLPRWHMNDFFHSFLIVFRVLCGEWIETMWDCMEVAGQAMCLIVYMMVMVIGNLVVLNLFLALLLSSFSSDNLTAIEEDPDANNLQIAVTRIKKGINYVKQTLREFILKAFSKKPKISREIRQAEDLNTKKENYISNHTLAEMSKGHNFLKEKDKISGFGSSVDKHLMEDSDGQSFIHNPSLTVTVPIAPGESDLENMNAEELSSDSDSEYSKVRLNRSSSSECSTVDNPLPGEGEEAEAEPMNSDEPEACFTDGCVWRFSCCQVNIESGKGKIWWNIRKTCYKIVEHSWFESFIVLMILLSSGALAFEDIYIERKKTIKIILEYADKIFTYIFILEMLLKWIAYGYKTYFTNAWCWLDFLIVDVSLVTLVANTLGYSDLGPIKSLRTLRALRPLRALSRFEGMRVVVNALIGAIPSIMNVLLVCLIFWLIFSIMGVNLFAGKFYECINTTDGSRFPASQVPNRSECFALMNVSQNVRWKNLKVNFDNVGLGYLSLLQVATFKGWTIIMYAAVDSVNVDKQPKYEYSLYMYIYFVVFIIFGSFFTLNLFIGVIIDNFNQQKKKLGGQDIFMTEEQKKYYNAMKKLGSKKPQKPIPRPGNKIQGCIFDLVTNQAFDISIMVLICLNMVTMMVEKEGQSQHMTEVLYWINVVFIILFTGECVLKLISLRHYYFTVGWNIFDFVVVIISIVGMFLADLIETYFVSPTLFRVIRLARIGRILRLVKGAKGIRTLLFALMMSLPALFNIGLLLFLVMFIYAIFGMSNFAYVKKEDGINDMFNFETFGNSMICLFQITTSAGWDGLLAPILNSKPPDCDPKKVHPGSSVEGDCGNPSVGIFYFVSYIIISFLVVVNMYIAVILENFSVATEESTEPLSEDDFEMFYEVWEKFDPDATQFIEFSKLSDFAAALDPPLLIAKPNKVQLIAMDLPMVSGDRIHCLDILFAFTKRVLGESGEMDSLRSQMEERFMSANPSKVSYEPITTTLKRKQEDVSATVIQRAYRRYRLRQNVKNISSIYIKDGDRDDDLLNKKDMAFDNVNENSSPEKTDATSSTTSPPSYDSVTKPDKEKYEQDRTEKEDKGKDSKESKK
Experiment Description: E-VIPR optical membrane potential assay with electrical stimulation
Type: cell-based
Condition Info: active against one or more sodium channels; Table 3 does not name the assay or NaV subtype; read-out: Binned Activity Data (IC50)

{"Compound": "CC(C)Oc1ccc(C(=O)N2CCC3(CC2)c2ccc(C(=O)C(F)(F)F)n2CCN3C)cc1F", "IC50": "≤ 2000 nM"}
{"Compound": "CC1(C)Cn2c(C(=O)C(F)(F)F)ccc2C2(CCN(C(=O)c3ccc(-c4ccccc4)c(F)c3)CC2)N1", "IC50": "≤ 2000 nM"}
{"Compound": "Cc1cc(C(=O)N2CCC3(CC2)c2ccc(C(F)(F)F)n2CCN3C)ccc1S(=O)(=O)N(C)C", "IC50": "≤ 2000 nM"}

Param request: IC50 | system human NaV subtype, like NaV 1.7 (Homo sapiens, UniProt Q15858) | item COc1cc(C(=O)N2CCC3(c4ccc(C(F)(F)F)n4CCN3C)C(C)C2)ccc1OC(C)C (stereo not shown) 2000 to 5000 nM
